tested on: HepG2; test: cell viability relative to DMSO; higher = less toxic; settings: 72 h; 1000 nM
So I've got a bunch of compounds here, and I need their cell viability values.
One number for each entry, in %.

C=CCN1CC[C@]23c4c5ccc(O)c4O[C@H]2[C@@H](OCCOCCOCCOCCOCCOCCOCCOC)CC[C@@]3(O)[C@H]1C5 : 93.6

Provide cell viability values for the following items, in order.
1. CCOC(=O)C1=C[C@]2(CC)CCCN3CCc4c(n1c1ccccc41)[C@@H]32
2. C=C(C)[C@@H]1CC[C@]2(C(=O)O)CC[C@]3(C)[C@H](CC[C@@H]4[C@@]5(C)CC[C@H](OC(=O)CC(C)(C)C(=O)O)C(C)(C)[C@@H]5CC[C@]43C)[C@@H]12
3. CC(C)c1ccc(NC(=O)Cn2cnc3c2c(=O)n(C)c(=O)n3C)cc1

Ans.
1. 89.7
2. 94.1
3. 112

Provide cell viability values for the following items, in order.
1. CC(=O)Nc1cccc(Nc2ncnc(N3CCC(OCc4ccc(OC(F)(F)F)cc4)CC3)n2)c1C
2. O=[N+]([O-])c1ncc[nH]1
3. O=C(O)C1=CO[C@@H](O[C@@H]2O[C@H](CO)[C@@H](O)[C@H](O)[C@H]2O)[C@@H]2C(CO)=CC[C@H]12

Ans.
104
107
111

---

system: A549-ACE2 infected with SARS-CoV-2; test: morphology score (similarity to uninfected cells); higher = more like uninfected cells; conditions: 0.3 µM; 24 h
QUANTITY: morphology score
One number for each entry.

CCCCCCCCCCC(O)C1C=CC2C(=O)N(c3ccccc3)C(=O)C2N1Nc1ccc([N+](=O)[O-])cc1 (stereo unspecified) : 0.31
CC(Cc1ccccc1)NCCC(c1ccccc1)c1ccccc1 (stereo unspecified) : -0.03
OCCN1CCN(CCCN2c3ccccc3Sc3ccc(C(F)(F)F)cc32)CC1 : 0.02

Provide morphology score values for the following items, in order.
1. CCN(CC)C(=S)SSC(=S)N(CC)CC
2. O=C(NC1CCN(CCCCC2(C(=O)NCC(F)(F)F)c3ccccc3-c3ccccc32)CC1)c1ccccc1-c1ccc(C(F)(F)F)cc1 [lomitapide]
3. O=C(c1ccc(-c2ccc(Cl)cc2)o1)N(Cc1ccccn1)c1ccc(N2CCNCC2)cc1

Ans.
0.44
0.12
0.26

---

system: Caco-2; test: cell viability relative to DMSO; higher = less toxic; details: 72 h; 1 nM
QUANTITY: cell viability (%)
Numbers only, in %.

The following compounds have reported results that may help.
O=C(O)C1=CO[C@@H](O[C@@H]2O[C@H](CO)[C@@H](O)[C@H](O)[C@H]2O)[C@@H]2C(CO)=CC[C@H]12 : 117
CC[C@H](C)[C@@H]([C@@H](CC(=O)N1CCC[C@H]1[C@H](OC)[C@@H](C)C(=O)N[C@@H](Cc1ccccc1)c1nccs1)OC)N(C)C(=O)[C@@H](NC(=O)[C@H](C(C)C)N(C)C)C(C)C : 51.5
C[C@H](NC(=O)[C@@H](Cc1c[nH]c2ccccc12)NC(=O)[C@@H](N)Cc1c[nH]cn1)C(=O)N[C@@H](Cc1c[nH]c2ccccc12)C(=O)N[C@H](Cc1ccccc1)C(=O)N[C@@H](CCCCN)C(N)=O : 92
C=CCc1cccc(/C=N/NC(=O)CN2CCN(Cc3ccccc3)CC2)c1O : 98.2
CCCCCCCCCCCCCCCC[n+]1ccn(Cc2ccccc2)c1C : 100

Provide cell viability values for the following items, in order.
1. Cc1ccc(Cl)cc1N(CC(=O)Nc1c(F)cccc1F)S(C)(=O)=O
2. CC(=O)OCC1=C(C(=O)O)N2C(=O)[C@@H](NC(=O)CSc3ccncc3)[C@H]2SC1
3. COc1cc(-n2c(=S)[nH]c3ccccc3c2=O)c(Cl)cc1Cl
4. CCN(CC)CCNC(=O)c1ccc(N)cc1 [procainamide]

Ans.
104
93.9
103
88.5

Provide cell viability values for the following items, in order.
1. Nc1ccncc1
2. C1N2CN3CN1CN(C2)C3
3. CCOc1cc2ncc(C#N)c(Nc3ccc(F)c(Cl)c3)c2cc1NC(=O)/C=C/CN(C)C
4. O=S(=O)(O)c1cc(O)ccc1O [etamsylate]
5. CCN[C@H]1CN(CCCOC)S(=O)(=O)c2sc(S(N)(=O)=O)cc21 [brinzolamide]
6. O=C(c1ccc(-c2ccc(Cl)cc2)o1)N(Cc1ccccn1)c1ccc(N2CCNCC2)cc1

Ans.
[102, 94.6, 96.9, 89.7, 89.1, 104]

Provide cell viability values for the following items, in order.
1. OC[C@@H](O)[C@@H](O)CO
2. NS(=O)(=O)c1cc2c(cc1Cl)NC(C1CC3C=CC1C3)NS2(=O)=O (stereo unspecified) [cyclothiazide]

Ans.
[94.1, 92.4]

---

So I've got a bunch of molecules here, and I need their cell viability values.
tested on: Vero E6; test: cell viability relative to DMSO; higher = less toxic; settings: 72 h; 100 nM
One number for each entry, in %.

CC(C)C[C@H](NC(=O)CNC(=O)c1cc(Cl)ccc1Cl)B(O)O [ixazomib] : 78.5

Provide cell viability values for the following items, in order.
1. O[C@H]1CC[C@H](Nc2ncc3nc(Nc4c(F)cc(F)cc4F)n([C@H]4CCOC4)c3n2)CC1 [CC-930]
2. COc1ccccc1Oc1c(NS(=O)(=O)c2ccc(C)cn2)nc(-c2ccncc2)nc1OC [SPP301]
3. C#Cc1cccc2c1c(C(=O)c1ccc(Cn3c(C)nc4cnccc43)c(F)c1)cn2C(=O)N(C)C [ABT-491]
4. CC1(C)CC[C@]2(NC(=O)C(C)(F)F)CC[C@]3(C)[C@H](C(=O)C=C4[C@@]5(C)C=C(C#N)C(=O)C(C)(C)[C@@H]5CC[C@]43C)[C@@H]2C1 [Omaveloxolone (RTA-408)]
5. O=C(CCCCCCC(=O)NO)NO [SBHA]
6. CN(C)CCCSc1ccccc1NC(=O)/C=C/c1ccccc1 [cinanserin]
7. CO[C@H]1/C=C/O[C@@]2(C)Oc3c(C)c(O)c4c(O)c(cc(O)c4c3C2=O)NC(=O)/C(C)=C\C=C\[C@H](C)[C@H](O)[C@@H](C)[C@@H](O)[C@@H](C)[C@H](OC(C)=O)[C@@H]1C [rifamycin-sv]

Ans.
[98.3, 105, 97.1, 103, 99.6, 97, 99.4]

---

test system: U2OS; test: cell viability relative to DMSO; higher = less toxic; conditions: 72 h; 10000 nM
So I've got a bunch of molecules here, and I need their cell viability values.
Numbers only, in %.

O=S(=O)(O)c1cc(O)ccc1O [etamsylate] : 104
Cc1ccc2c(c1)Cc1c(C(=O)NC3CCCCC3)nn(-c3ccc(Cl)cc3Cl)c1-2 : 102
Nc1ncnc2c1c(-c1ccc(Cl)cc1)nn2-c1cccc(-c2cnnn2Cc2cccc(-c3ccccc3)c2)c1 : 103
CCC(=O)O[C@@H]1CC(=O)O[C@H](C)C/C=C/C=C/[C@H](OC(C)=O)[C@H](C)C[C@H](CC=O)[C@H](O[C@@H]2O[C@H](C)[C@@H](O[C@H]3C[C@@](C)(OC(C)=O)[C@@H](OC(=O)CC)[C@H](C)O3)[C@H](N(C)C)[C@H]2O)[C@H]1OC : 92.4
CN1CCN(c2nc(C3=C(c4c[nH]c5ccccc45)C(=O)NC3=O)c3ccccc3n2)CC1 : 94.1

Provide cell viability values for the following items, in order.
1. O[C@H]1CC[C@H](Nc2ncc3nc(Nc4c(F)cc(F)cc4F)n([C@H]4CCOC4)c3n2)CC1
2. COc1ccc2c(C(=S)N(C)CC(=O)O)cccc2c1C(F)(F)F
3. CCNC(=O)CCC/C=C\C[C@@H]1[C@@H](/C=C/[C@@H](O)CCc2ccccc2)[C@H](O)C[C@@H]1O
4. O=C(NC1CCN(CCCCC2(C(=O)NCC(F)(F)F)c3ccccc3-c3ccccc32)CC1)c1ccccc1-c1ccc(C(F)(F)F)cc1 [lomitapide]
5. NC(=O)c1[nH]cnc1O
6. CC(C)(Oc1ccc(Cl)cc1)C(=O)O
7. C=CC(=O)Nc1cccc(C)c1Nc1ncc2cc(-c3c(Cl)c(OC)cc(OC)c3Cl)ccc2n1

Ans.
[91.1, 99.1, 107, 1.2, 104, 99.2, 43.8]

Provide cell viability values for the following items, in order.
1. N[C@@H](CC(=O)N1CCn2c(nnc2C(F)(F)F)C1)Cc1n[nH]c2c(F)c(F)ccc12
2. CNC(=O)c1cccc2cc(Oc3ccnc4cc(OCC5(N)CC5)c(OC)cc34)ccc12
3. Cc1c(Cn2c(C)nc3c(C(=O)O)cc(N4CCOCC4)cc32)cccc1C(F)(F)F
4. CCC(=O)O[C@@H]1CC(=O)O[C@H](C)C/C=C/C=C/[C@H](O)[C@H](C)C[C@H](CC=O)[C@H](O[C@@H]2O[C@H](C)[C@@H](O[C@H]3C[C@@](C)(O)[C@@H](OC(=O)CC)[C@H](C)O3)[C@H](N(C)C)[C@H]2O)[C@H]1OC

Ans.
1: 99.7; 2: 91.5; 3: 91.3; 4: 97.6

Note to self: cell viability recorded for O=[N+]([O-])c1cc(Cl)ccc1S(=O)(=O)N1CCN(Cc2ccccc2)CC1 was 106
